Test system: Plasmodium falciparum Sir2 (PF13_0152, Sir2A)
Assay: pfSir2 binders on small-molecule microarrays, primary screen, biochemical, small-molecule microarray, 635 nm fluorescence (AID 1098);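 further: score merges spot fluorescence intensity with its signal-to-noise ratio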
Settings: small-molecule microarray binding, fluorescence 635 nm; higher = more signal
Catalogue of composite z-score readings, one per entry.
Measurement type: composite z-score

>>> reported("CC(C)CNC(=O)[C@@H]1c2ccccc2C(=O)N(C2CCCCC2)[C@H]1c1ccc(CO)cc1")
1.65
>>> reported("COc1cc(NN2C(C(O)C3CCCCC3)C=CC3C(=O)N(c4ccccc4)C(=O)C32)cc(OC)c1OC (stereo not drawn)")
1.11
>>> reported("CCOC(=O)C1=CC[C@@H](c2ccccc2)N(S(=O)(=O)c2ccc(C)cc2)[C@H]1C=Cc1ccccc1")
1.66
>>> reported("O=C1O[C@H](c2ccccc2)[C@H](c2ccccc2)N2[C@H]1[C@@H](C(=O)O)[C@]1(C(=O)Nc3ccc(C#CC4(O)CCCCCC4)cc31)[C@H]2c1ccc(O)cc1")
0.502
>>> reported("C=C(COC)/C(=C/C[C@@H](OC(=O)c1ccncc1)c1ccccc1OCCO)c1cc(C(=O)OC)ccc1OC")
-0.979
>>> reported("Cc1ccc([C@H]2C(C(=O)O)=C[C@@H](C(C)(C)C)N2S(=O)(=O)c2ccc(C)cc2)cc1")
1.03
>>> reported("O=C1C2C=CC(C(O)c3ccc(I)cc3)N(Nc3ccccc3)C2C(=O)N1c1ccccc1 (stereo not drawn)")
1.1
>>> reported("CC(C)[C@H]1NC(=O)[C@@]23C(=O)N[C@@H](Cc4ccccc4)C2[C@H](C)[C@@]2(C)O[C@H]2C3/C=C/C/C=C\\CNC(=O)[C@H](Cc2ccccc2)NC1=O (stereo partly drawn)")
0.205
